Molecular target: Casein kinase I isoform alpha (Homo sapiens) (UniProt P48729);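 further: each value is a mean percent inhibition of the kinase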
Sequence (P48729 2-337 limits assumed): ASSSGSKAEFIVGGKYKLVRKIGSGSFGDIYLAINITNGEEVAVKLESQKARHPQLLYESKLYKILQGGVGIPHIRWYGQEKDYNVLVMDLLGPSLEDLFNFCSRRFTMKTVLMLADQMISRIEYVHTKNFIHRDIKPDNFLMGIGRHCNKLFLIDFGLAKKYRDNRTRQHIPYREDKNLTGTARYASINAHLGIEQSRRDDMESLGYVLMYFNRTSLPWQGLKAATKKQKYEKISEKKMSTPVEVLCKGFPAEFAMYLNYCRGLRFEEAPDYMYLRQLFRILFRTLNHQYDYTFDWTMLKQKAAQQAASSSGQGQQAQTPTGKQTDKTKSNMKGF
Conditions: at 1 µM
Rule: MET for inhibition not less than 6%, NOT MET for anything less.

Query :: Does inhibition meet or surpass 6% for CCc1cccc(CC)c1/C=C/c1cncc(C(=O)NC)c1 ?
Result :: MET

Query :: Does inhibition meet or surpass 6% for O=C(Nc1n[nH]c2cc(-c3cc(F)ccc3F)ccc12)C1CC1 ?
Result :: NOT MET

Query :: Does inhibition meet or surpass 6% for NS(=O)(=O)c1ccc(N/N=C2\C(=O)Nc3ccc(-c4cnco4)cc32)cc1 ?
Result :: NOT MET

----------
Target: Mitogen-activated protein kinase 3 (Homo sapiens) (UniProt P27361);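 further: each value is a mean inhibition figure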
Sequence (P27361 whole entry): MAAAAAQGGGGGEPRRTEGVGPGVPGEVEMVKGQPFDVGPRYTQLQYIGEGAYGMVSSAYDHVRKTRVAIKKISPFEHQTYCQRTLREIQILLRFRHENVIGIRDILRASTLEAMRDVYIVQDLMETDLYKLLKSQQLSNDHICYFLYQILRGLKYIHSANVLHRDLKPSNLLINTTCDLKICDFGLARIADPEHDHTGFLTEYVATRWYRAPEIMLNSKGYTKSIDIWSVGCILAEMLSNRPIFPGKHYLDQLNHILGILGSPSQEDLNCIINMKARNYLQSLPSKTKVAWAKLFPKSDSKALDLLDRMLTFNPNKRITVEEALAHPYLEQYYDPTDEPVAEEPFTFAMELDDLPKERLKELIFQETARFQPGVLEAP
Conditions: at 0.1 µM
Please provide measured inhibition for the entries that follow.
Output spec: scalar in %, unitless text.

# inhibition (compound: C[C@@H](Oc1cc(-n2cnc3ccc(OCC4CCN(C)CC4)cc32)sc1C(N)=O)c1ccccc1Cl ) is 4.68

# inhibition (compound: N#Cc1ccc(Oc2nccc(-c3c(-c4ccc(F)cc4)ncn3C3CCNCC3)n2)cc1 ) is 6.9

# inhibition (compound: Fc1ccc(-c2ncn(C3CCNCC3)c2-c2ccnc(Oc3ccc(Oc4ccccc4)cc3)n2)cc1 ) is 3.67

# inhibition (compound: Fc1ccc(-c2ncn(CCCN3CCOCC3)c2-c2ccncc2)cc1 ) is 4.06

# inhibition (compound: COc1cc(Nc2ncc3c(C)nc(-c4cccc(C(F)(F)F)c4)n3n2)cc(OC)c1OC ) is 4.86

----------
Target: Death-associated protein kinase 1 (Homo sapiens) (UniProt P53355);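 further: reported figure is the mean inhibition of DAPK1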
Sequence (P53355 whole entry, looked up): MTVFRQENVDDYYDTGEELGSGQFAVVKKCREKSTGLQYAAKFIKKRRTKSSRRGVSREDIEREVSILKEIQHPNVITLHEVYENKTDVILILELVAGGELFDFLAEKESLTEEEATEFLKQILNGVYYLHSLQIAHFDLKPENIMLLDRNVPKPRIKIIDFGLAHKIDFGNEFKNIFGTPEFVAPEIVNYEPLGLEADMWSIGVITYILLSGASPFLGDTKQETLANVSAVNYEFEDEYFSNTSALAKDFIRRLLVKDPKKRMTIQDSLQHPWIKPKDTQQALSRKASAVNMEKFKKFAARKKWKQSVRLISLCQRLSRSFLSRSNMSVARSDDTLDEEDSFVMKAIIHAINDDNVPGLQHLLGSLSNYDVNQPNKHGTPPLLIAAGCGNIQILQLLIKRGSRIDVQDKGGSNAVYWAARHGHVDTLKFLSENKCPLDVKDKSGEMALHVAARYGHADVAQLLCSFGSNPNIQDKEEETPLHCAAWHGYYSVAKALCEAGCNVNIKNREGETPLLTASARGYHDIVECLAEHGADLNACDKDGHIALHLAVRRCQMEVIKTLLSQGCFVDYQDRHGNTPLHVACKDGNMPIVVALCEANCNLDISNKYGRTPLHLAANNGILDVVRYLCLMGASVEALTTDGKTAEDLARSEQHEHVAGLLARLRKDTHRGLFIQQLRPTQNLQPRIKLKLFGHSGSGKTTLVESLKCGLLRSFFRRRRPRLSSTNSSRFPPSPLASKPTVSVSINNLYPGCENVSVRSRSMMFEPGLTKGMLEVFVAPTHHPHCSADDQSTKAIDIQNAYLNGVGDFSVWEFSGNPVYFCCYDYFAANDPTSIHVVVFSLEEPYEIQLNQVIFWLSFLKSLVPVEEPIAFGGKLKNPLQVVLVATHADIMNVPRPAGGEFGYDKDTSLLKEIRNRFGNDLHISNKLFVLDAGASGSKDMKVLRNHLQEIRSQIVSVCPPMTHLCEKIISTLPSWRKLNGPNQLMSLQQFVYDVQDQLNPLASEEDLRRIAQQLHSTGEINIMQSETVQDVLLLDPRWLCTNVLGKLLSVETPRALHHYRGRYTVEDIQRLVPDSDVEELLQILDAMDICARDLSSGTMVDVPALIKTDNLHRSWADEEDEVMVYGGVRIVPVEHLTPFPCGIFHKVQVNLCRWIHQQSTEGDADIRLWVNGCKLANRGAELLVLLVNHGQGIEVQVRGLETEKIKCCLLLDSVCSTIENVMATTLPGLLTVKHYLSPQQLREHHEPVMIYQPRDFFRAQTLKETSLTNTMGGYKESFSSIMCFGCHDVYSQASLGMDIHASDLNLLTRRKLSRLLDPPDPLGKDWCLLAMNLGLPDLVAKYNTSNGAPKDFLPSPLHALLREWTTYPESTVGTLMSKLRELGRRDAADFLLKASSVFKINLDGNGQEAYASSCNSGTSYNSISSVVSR
Conditions: at 0.1 µM
MEASUREMENT KIND: inhibition (%)
Output spec: scalar in %, unitless text.

Record for O=C(Nc1n[nH]c2cc(-c3ccccc3)ccc12)C1CC1 under target or system Death-associated protein kinase 1 (Homo sapiens) (UniProt P53355): inhibition reported as 5.91

Record for Cc1nnc(-c2ccc(C)c(-c3ccc(C(=O)NCc4ccc(Cl)cc4)cc3)c2)o1 under target or system Death-associated protein kinase 1 (Homo sapiens) (UniProt P53355): inhibition reported as 2.85

Record for C[C@@H](Oc1cc(-n2cnc3ccc(OCC4CCN(C)CC4)cc32)sc1C(N)=O)c1ccccc1Cl under target or system Death-associated protein kinase 1 (Homo sapiens) (UniProt P53355): inhibition reported as 7.7

Record for Clc1ccc(CNc2nccc(-c3cnn4ncccc34)n2)cc1 under target or system Death-associated protein kinase 1 (Homo sapiens) (UniProt P53355): inhibition reported as 9.28

Record for O=C(Nc1n[nH]c2nc(-c3ccc(O)cc3)c(Br)cc12)C1CC1 under target or system Death-associated protein kinase 1 (Homo sapiens) (UniProt P53355): inhibition reported as 5.9

Record for NC(=O)c1cc(-c2ccncc2)cc(-c2ccccc2)c1N under target or system Death-associated protein kinase 1 (Homo sapiens) (UniProt P53355): inhibition reported as -2.69

----------
Biological target: Serine/threonine-protein kinase pim-2 (Homo sapiens);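 further: reported value is the mean percent inhibition of PIM2, measured in the GSK PKIS kinase inhibitor set screen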
Settings: at 0.1 µM
MEASUREMENT KIND: inhibition
Include the unit right after the number.

# inhibition (molecule: COc1cc2ncn(-c3cc(OCc4ccccc4C(F)(F)F)c(C(C)=O)s3)c2cc1OC ) is 0.28%

# inhibition (molecule: CCN(CC)Cc1ccc(Nc2nccc(-c3cnn4ncccc34)n2)cc1 ) is -3.66%

# inhibition (molecule: COc1cccc(-n2cnc3c(N/N=C/c4ccncc4)ncnc32)c1 ) is -3.51%

# inhibition (molecule: NC(=O)Cc1ccccc1Oc1nccc(-c2c(-c3ccc(F)cc3)ncn2C2CCNCC2)n1 ) is 0.18%

# inhibition (molecule: Fc1ccc(-c2nc3n(c2-c2ccncc2)CCS3)cc1 ) is -3.25%

# inhibition (molecule: O=C1Nc2ccc(I)cc2C1=Cc1cc(Br)c(O)c(Br)c1 ) is 0.13%

# inhibition (molecule: C/C(Nc1ccc(S(N)(=O)=O)cc1)=C1/C(=O)Nc2ccccc21 ) is 0.75%

# inhibition (molecule: O=C(Nc1n[nH]c2nc(-c3ccc(O)cc3)c(Br)cc12)C1CC1 ) is 45.5%

# inhibition (molecule: O=C(Nc1n[nH]c2nc(-c3ccco3)ccc12)C1CC1 ) is 0.1%

# inhibition (molecule: COc1ccc2cc(-c3c(-c4ccncc4)nc(-c4ccc(S(C)(=O)=O)cc4C)n3C)ccc2c1 ) is 0.92%

# inhibition (molecule: COC(=O)Nc1nc2ccc(Sc3ccc(NC(=O)Nc4cc(C(F)(F)F)ccc4F)cc3)cc2[nH]1 ) is -0.3%

# inhibition (molecule: NC(=O)c1ccc(Oc2nccc(-c3c(-c4ccc(F)cc4)ncn3C3CCNCC3)n2)cc1 ) is -0.5%

# inhibition (molecule: c1ccc(Oc2ccc(Nc3ncc(-c4ccccc4)o3)cc2)cc1 ) is 0.31%

# inhibition (molecule: NC(=O)c1cc(-c2ccncc2)cc(-c2ccccc2)c1N ) is -0.25%

# inhibition (molecule: O=C1Nc2ccccc2/C1=C/Nc1ccc(-n2cncn2)cc1 ) is 0.56%

# inhibition (molecule: COc1cc2ncn(-c3cc(OCc4cccs4)c(C(N)=O)s3)c2cc1OC ) is -2.64%

# inhibition (molecule: Fc1ccc(-c2ncn(CCCN3CCOCC3)c2-c2ccncc2)cc1 ) is 0.24%

# inhibition (molecule: CS(=O)(=O)CCNCc1cc(-c2cc3c(Nc4ccc(OCc5cccc(F)c5)c(Cl)c4)ncnc3s2)cs1 ) is -0.84%

# inhibition (molecule: COc1cc(Nc2ncc3c(C)nc(-c4cccc(C(F)(F)F)c4)n3n2)cc(OC)c1OC ) is 0.34%

----------
Target: Macrophage-stimulating protein receptor (Homo sapiens) (UniProt Q04912)
Sequence (Q04912 25-304 limits assumed): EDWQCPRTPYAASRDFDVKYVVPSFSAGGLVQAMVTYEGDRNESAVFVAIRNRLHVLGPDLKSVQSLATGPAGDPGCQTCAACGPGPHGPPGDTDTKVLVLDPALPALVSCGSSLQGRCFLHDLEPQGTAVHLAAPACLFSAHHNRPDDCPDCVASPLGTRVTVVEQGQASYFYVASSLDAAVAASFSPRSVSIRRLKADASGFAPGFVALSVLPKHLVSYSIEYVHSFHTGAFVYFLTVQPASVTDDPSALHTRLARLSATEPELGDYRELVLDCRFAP
Sequence (Q04912 310-1400 limits assumed): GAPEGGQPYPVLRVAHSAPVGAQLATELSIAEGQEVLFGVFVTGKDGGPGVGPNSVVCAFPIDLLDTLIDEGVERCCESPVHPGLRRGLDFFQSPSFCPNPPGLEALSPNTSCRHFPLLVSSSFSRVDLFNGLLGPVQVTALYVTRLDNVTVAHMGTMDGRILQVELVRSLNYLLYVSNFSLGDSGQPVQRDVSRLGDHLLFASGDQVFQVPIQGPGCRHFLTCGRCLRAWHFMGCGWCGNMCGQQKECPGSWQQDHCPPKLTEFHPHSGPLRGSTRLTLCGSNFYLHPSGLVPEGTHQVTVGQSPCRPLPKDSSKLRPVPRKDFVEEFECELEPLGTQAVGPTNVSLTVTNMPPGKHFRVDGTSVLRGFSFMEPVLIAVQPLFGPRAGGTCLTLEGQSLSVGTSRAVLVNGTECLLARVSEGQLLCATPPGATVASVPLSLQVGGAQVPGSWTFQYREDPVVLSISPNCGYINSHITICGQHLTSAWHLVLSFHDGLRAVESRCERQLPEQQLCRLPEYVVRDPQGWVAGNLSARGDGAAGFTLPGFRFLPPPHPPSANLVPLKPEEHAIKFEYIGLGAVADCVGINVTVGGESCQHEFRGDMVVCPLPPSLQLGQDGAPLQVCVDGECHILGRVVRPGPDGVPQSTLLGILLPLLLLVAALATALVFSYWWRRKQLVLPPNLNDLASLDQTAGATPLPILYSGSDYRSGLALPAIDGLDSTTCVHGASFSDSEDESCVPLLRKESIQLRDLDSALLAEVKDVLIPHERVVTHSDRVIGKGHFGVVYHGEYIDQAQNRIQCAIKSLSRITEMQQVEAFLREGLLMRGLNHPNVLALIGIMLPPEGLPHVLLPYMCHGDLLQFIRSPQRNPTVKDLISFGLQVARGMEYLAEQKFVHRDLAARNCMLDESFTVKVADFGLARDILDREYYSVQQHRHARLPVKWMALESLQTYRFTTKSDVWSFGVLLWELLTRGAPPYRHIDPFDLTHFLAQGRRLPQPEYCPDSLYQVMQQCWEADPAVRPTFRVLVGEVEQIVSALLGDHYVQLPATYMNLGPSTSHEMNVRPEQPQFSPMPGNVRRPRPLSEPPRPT
Conditions: at 1 µM
Description: GSK_PKIS: RON mean inhibition at 1 uM [Nanosyn]
Please provide measured inhibition for the entries that follow.
Output spec: scalar in %, unitless text.

Record for COc1cccc(/C=N/Nc2ncnc3c2cnn3-c2cccc(OC)c2)c1 under target or system Macrophage-stimulating protein receptor (Homo sapiens) (UniProt Q04912): inhibition reported as 4.77

Record for O=C1Nc2ccccc2/C1=C/Nc1ccc(-n2cncn2)cc1 under target or system Macrophage-stimulating protein receptor (Homo sapiens) (UniProt Q04912): inhibition reported as 6.25

Record for CN(C)c1ccc2c(c1)/C(=C/Nc1ccc(S(N)(=O)=O)cc1)C(=O)N2 under target or system Macrophage-stimulating protein receptor (Homo sapiens) (UniProt Q04912): inhibition reported as 7.23

Record for CN(C)CCOc1ccc(-c2cc(-c3ccc4c(c3)CCC4=NO)c(-c3ccncc3)o2)cc1 under target or system Macrophage-stimulating protein receptor (Homo sapiens) (UniProt Q04912): inhibition reported as 22.4

Record for O=C(Nc1n[nH]c2nc(-c3ccc(O)cc3)c(Br)cc12)C1CC1 under target or system Macrophage-stimulating protein receptor (Homo sapiens) (UniProt Q04912): inhibition reported as 6.19

Record for c1ccc(-c2n[nH]cc2-c2ccnc(-c3ccc(OCCN4CCOCC4)cc3)c2)nc1 under target or system Macrophage-stimulating protein receptor (Homo sapiens) (UniProt Q04912): inhibition reported as 3.22

Record for Cc1ccc(NC(=O)c2ccoc2)cc1-c1ccc(C(=O)NCC2CC2)cc1 under target or system Macrophage-stimulating protein receptor (Homo sapiens) (UniProt Q04912): inhibition reported as -3.5

Record for CNC(=O)c1cncc(/C=C/c2c(C)cccc2C)c1 under target or system Macrophage-stimulating protein receptor (Homo sapiens) (UniProt Q04912): inhibition reported as 0.77

Record for COc1cc2ncn(-c3cc(OCc4cccs4)c(C(N)=O)s3)c2cc1OC under target or system Macrophage-stimulating protein receptor (Homo sapiens) (UniProt Q04912): inhibition reported as 7.33

Record for CCC(=O)Nc1ccc(C)c(-c2ccc(C(=O)NCC3CC3)cc2)c1 under target or system Macrophage-stimulating protein receptor (Homo sapiens) (UniProt Q04912): inhibition reported as 7.8

Record for O=C(Nc1n[nH]c2cc(-c3ccccc3)ccc12)C1CC1 under target or system Macrophage-stimulating protein receptor (Homo sapiens) (UniProt Q04912): inhibition reported as 5.31

Record for COc1ccc2ncn(-c3cc(O[C@H](C)c4ccccc4Cl)c(C(N)=O)s3)c2c1 under target or system Macrophage-stimulating protein receptor (Homo sapiens) (UniProt Q04912): inhibition reported as 3.04

Record for Clc1ccc(CNc2nccc(-c3cnn4ncccc34)n2)cc1 under target or system Macrophage-stimulating protein receptor (Homo sapiens) (UniProt Q04912): inhibition reported as 6.29

Record for N#Cc1ccc(Oc2nccc(-c3c(-c4ccc(F)cc4)ncn3C3CCNCC3)n2)cc1 under target or system Macrophage-stimulating protein receptor (Homo sapiens) (UniProt Q04912): inhibition reported as 4.9

Record for Fc1ccc(-c2ncn(C3CCNCC3)c2-c2ccnc(Oc3ccc4c(c3)OCO4)n2)cc1 under target or system Macrophage-stimulating protein receptor (Homo sapiens) (UniProt Q04912): inhibition reported as 4.19

Record for C#Cc1cccc(Nc2ncnc3ccc(OCCCCNCCS(C)(=O)=O)cc23)c1 under target or system Macrophage-stimulating protein receptor (Homo sapiens) (UniProt Q04912): inhibition reported as 7.33

Record for CN(C)CCCNc1nccc(-c2c(-c3ccc(F)cc3)nn3cc(C(F)(F)F)ccc23)n1 under target or system Macrophage-stimulating protein receptor (Homo sapiens) (UniProt Q04912): inhibition reported as 5.64

Record for Fc1ccc(-c2ncn(C3CCNCC3)c2-c2ccnc(Oc3ccc(F)c(F)c3)n2)cc1 under target or system Macrophage-stimulating protein receptor (Homo sapiens) (UniProt Q04912): inhibition reported as 2.54

Record for COc1cc(C)c(N(C)C(=O)CN(C)C)cc1Nc1nc(Nc2cccc(F)c2C(N)=O)c2cc[nH]c2n1 under target or system Macrophage-stimulating protein receptor (Homo sapiens) (UniProt Q04912): inhibition reported as 8.44

Record for C[C@@H](Oc1cc(-n2cnc3ccc(OCC4CCN(C)CC4)cc32)sc1C(N)=O)c1ccccc1Cl under target or system Macrophage-stimulating protein receptor (Homo sapiens) (UniProt Q04912): inhibition reported as 13.1

Record for c1ccc(Oc2ccc(Nc3ncc(-c4ccccc4)o3)cc2)cc1 under target or system Macrophage-stimulating protein receptor (Homo sapiens) (UniProt Q04912): inhibition reported as 2.2

Record for COc1cc(Nc2ncc3c(C)nc(-c4cccc(C(F)(F)F)c4)n3n2)cc(OC)c1OC under target or system Macrophage-stimulating protein receptor (Homo sapiens) (UniProt Q04912): inhibition reported as 6.04

Record for NC(=O)Cc1ccccc1Oc1nccc(-c2c(-c3ccc(F)cc3)ncn2C2CCNCC2)n1 under target or system Macrophage-stimulating protein receptor (Homo sapiens) (UniProt Q04912): inhibition reported as 4.24

Record for O=C(Nc1n[nH]c2nc(-c3ccco3)ccc12)C1CC1 under target or system Macrophage-stimulating protein receptor (Homo sapiens) (UniProt Q04912): inhibition reported as 4.1

Record for O=C(Nc1n[nH]c2cc(-c3cc(F)ccc3F)ccc12)C1CC1 under target or system Macrophage-stimulating protein receptor (Homo sapiens) (UniProt Q04912): inhibition reported as 1.65

Record for COc1cc(Nc2ncc3c(C)nc(-c4cccc(Oc5ccccc5)c4)n3n2)cc(OC)c1OC under target or system Macrophage-stimulating protein receptor (Homo sapiens) (UniProt Q04912): inhibition reported as 2.13

Record for Nc1nccc(-c2c(-c3ccc(F)cc3)ncn2C2CCC(O)CC2)n1 (configuration not stated) under target or system Macrophage-stimulating protein receptor (Homo sapiens) (UniProt Q04912): inhibition reported as 13.3
